Biological target: UniProt:P36969
Sequence (whole entry): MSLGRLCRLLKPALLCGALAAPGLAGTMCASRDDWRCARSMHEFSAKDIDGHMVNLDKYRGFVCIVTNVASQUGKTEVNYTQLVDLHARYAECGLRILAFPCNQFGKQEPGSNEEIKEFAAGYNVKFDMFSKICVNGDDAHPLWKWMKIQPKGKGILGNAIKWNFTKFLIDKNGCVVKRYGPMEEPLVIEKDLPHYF
Experiment: Induction of GPX4 degradation in human HT-1080 cells at 10 uM incubated for 24 hrs relative to control
Assay type: cell-based
Label Y when Activity >= 20%; otherwise N.

Task: Check the entry COC(=O)[C@H]1Cc2c([nH]c3ccccc23)[C@H](c2ccc(C(=O)NCc3cn(CCOCCOCCOCCNc4cccc5c4C(=O)N(C4CCC(=O)NC4=O)C5=O)nn3)cc2)N1C(=O)CCl (stereo not given in full) : does Activity equal or exceed 20%?
Output: Y

Task: Check the entry COC(=O)[C@H]1Cc2c([nH]c3ccccc23)[C@H](c2ccc(C(=O)NCc3cn(CCOCCOCCNc4cccc5c4C(=O)N(C4CCC(=O)NC4=O)C5=O)nn3)cc2)N1C(=O)CCl (stereo not given in full) : does Activity equal or exceed 20%?
Output: Y

Task: Check the entry "COC(=O)[C@H]1Cc2c([nH]c3ccccc23)[C@H](c2ccc(C(=O)NCc3cn(CCOCCOCCOCCN[C@H](C(=O)N4C[C@H](O)C[C@H]4C(=O)N[C@@H](C)c4ccc(-c5scnc5C)cc4)C(C)(C)C)nn3)cc2)N1C(=O)CCl" : does Activity equal or exceed 20%?
Output: Y

---
Task: Check the entry "COC(=O)[C@H]1Cc2c([nH]c3ccccc23)[C@H](c2ccc(C(=O)NCc3cn(CCOCCOCCN[C@H](C(=O)N4C[C@H](O)C[C@H]4C(=O)N[C@@H](C)c4ccc(-c5scnc5C)cc4)C(C)(C)C)nn3)cc2)N1C(=O)CCl" : does Activity equal or exceed 20%?
Output: Y

Task: Check the entry COC(=O)[C@H]1Cc2c([nH]c3ccccc23)[C@H](c2ccc(C(=O)NCc3cn(CCOCCOCCOCCOCCOCCNc4cccc5c4C(=O)N(C4CCC(=O)NC4=O)C5=O)nn3)cc2)N1C(=O)CCl (stereo not given in full) : does Activity equal or exceed 20%?
Output: N

====

molecular target: Phospholipid hydroperoxide glutathione peroxidase GPX4 (Homo sapiens) (UniProt P36969); test: Induction of GPX4 degradation in human HT-1080 cells at 0.1 uM incubated for 6 hrs relative to control; assay type: cell-based
assay metric: Activity (%)
Write the number in % without appending the unit.

Phospholipid hydroperoxide glutathione peroxidase GPX4 (Homo sapiens) (UniProt P36969) Activity of COC(=O)[C@H]1Cc2c([nH]c3ccccc23)[C@H](c2ccc(C(=O)N3CCN(CCCCCCCCCCCCNc4cccc5c4CN(C4CCC(=O)NC4=O)C5=O)CC3)cc2)N1C(=O)CCl (stereo not given in full) is 68

Phospholipid hydroperoxide glutathione peroxidase GPX4 (Homo sapiens) (UniProt P36969) Activity of COC(=O)[C@H]1Cc2c([nH]c3ccccc23)[C@H](c2ccc(C(=O)N3CCN(CCCCCCCCCNc4cccc5c4CN(C4CCC(=O)NC4=O)C5=O)CC3)cc2)N1C(=O)CCl (stereo not given in full) is 48

Phospholipid hydroperoxide glutathione peroxidase GPX4 (Homo sapiens) (UniProt P36969) Activity of COC(=O)[C@H]1Cc2c([nH]c3ccccc23)[C@H](c2ccc(C(=O)N3CCN(CCCCCCCCCCCCCNc4cccc5c4C(=O)N(C4CCC(=O)NC4=O)C5=O)CC3)cc2)N1C(=O)CCl (stereo not given in full) is 67

Phospholipid hydroperoxide glutathione peroxidase GPX4 (Homo sapiens) (UniProt P36969) Activity of COC(=O)[C@H]1Cc2c([nH]c3ccccc23)[C@H](c2ccc(C(=O)N3CCN(CCCCCCCCCCCNc4cccc5c4C(=O)N(C4CCC(=O)NC4=O)C5=O)CC3)cc2)N1C(=O)CCl (stereo not given in full) is 46

---
Phospholipid hydroperoxide glutathione peroxidase GPX4 (Homo sapiens) (UniProt P36969) Activity of COC(=O)[C@H]1Cc2c([nH]c3ccccc23)[C@H](c2ccc(C(=O)N3CCN(CCCCCCCCCCCCNc4cccc5c4C(=O)N(C4CCC(=O)NC4=O)C5=O)CC3)cc2)N1C(=O)CCl (stereo not given in full) is 56
